- Species: Rattus norvegicus
- procedure_details: DrugMatrix - Regimen: Daily Repeat
- Assay type: toxicity, organism-based, Sprague-Dawley
- Parameters: regimen Daily Repeat, gender Male, age 6-8 weeks
- experimental_setup: in vivo, po, 0 mg/kg, 120 h, tissue Plasma, route oral GAVAGE, dose level Control, time 5 day, vehicle .5 % CMC
measurement_name: SODIUM (MEQ/L)
Unit MEQ/L implied. Number only.

Field: example entries. Status: answers known.
molecule | SODIUM / MEQ/L
O=C1c2ccccc2C(=O)C1c1ccccc1 [PHENINDIONE] | 151.5
COc1cc(NC(C)CCCN)c2ncccc2c1 (stereo not given) [PRIMAQUINE] | 150.5
CN(C)CCC=C1c2ccccc2COc2ccccc21 [DOXEPIN] | 150.5
CC(C)Cc1ccc([C@H](C)C(=O)O)cc1 [DEXIBUPROFEN] | 148.33
CC(C)NCC(O)COc1ccc(CC(N)=O)cc1 (stereo not given) [ATENOLOL] | 150.5

Bench note: what SODIUM did COc1cc(/C=C/C(=O)O)ccc1O [FERULATE] show?
144.25
